Biological target: EGFR (human) (UniProt P00533)
Sequence (P00533 whole entry, looked up): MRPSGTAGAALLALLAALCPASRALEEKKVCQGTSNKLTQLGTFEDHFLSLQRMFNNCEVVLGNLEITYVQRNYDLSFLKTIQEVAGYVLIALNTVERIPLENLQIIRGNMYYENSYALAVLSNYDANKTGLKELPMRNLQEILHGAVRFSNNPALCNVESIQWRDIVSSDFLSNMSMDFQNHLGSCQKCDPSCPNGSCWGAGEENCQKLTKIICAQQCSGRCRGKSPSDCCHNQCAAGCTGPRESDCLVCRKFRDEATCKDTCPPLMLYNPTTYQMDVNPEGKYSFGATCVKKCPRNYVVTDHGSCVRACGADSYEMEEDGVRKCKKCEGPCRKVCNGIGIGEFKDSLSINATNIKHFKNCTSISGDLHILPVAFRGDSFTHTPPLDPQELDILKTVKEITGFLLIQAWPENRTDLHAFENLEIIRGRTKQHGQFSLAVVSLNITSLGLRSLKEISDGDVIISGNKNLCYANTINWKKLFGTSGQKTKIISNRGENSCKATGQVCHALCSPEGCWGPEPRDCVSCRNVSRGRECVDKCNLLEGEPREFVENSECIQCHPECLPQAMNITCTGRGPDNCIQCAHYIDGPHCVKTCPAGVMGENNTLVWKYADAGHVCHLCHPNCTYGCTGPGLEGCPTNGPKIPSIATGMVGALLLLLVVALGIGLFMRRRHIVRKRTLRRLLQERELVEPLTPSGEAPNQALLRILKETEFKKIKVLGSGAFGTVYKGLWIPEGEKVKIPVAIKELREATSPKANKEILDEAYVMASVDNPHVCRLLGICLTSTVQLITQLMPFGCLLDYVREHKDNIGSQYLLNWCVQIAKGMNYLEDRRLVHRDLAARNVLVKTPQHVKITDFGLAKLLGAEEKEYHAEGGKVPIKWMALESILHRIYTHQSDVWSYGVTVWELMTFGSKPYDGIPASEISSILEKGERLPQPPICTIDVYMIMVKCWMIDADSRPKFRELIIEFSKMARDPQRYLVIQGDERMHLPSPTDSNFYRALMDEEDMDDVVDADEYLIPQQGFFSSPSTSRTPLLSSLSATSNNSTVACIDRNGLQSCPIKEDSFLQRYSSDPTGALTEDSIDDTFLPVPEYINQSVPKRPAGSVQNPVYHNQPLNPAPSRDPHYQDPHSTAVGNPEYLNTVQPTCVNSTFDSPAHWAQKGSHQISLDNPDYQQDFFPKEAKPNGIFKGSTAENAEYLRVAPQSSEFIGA
Conditions: hcc827
Would you mind telling me the reported IC50 of each entry?

Report measured IC50; entry is C=CC(=O)N1CCc2c(sc3ncnc(N[C@H](CO)c4ccccc4)c23)C1 0.001 to 0.099 µM

Report measured IC50; entry is CN1CCN(C/C=C/C(=O)N2CCc3c(sc4ncnc(N[C@H](CO)c5ccccc5)c34)C2)CC1 0.001 to 0.099 µM

Report measured IC50; entry is C[C@@H](Nc1ncnc2sc3c(c12)CCN(C(=O)/C=C/CN(C)C)C3)c1ccccc1 0.001 to 0.099 µM

Report measured IC50; entry is C=CC(=O)N1CCc2c(sc3ncnc(N[C@H](COC)c4ccccc4)c23)C1 0.001 to 0.099 µM

Report measured IC50; entry is C=CC(=O)Nc1cccc(-c2cc3c(N[C@H](CO)c4ccccc4)ncnc3s2)c1 0.1 to 0.3 µM

Report measured IC50; entry is CN(C)C/C=C/C(=O)N1CCc2c(sc3ncnc(N[C@H](COCc4ccccc4)c4ccccc4)c23)C1 0.001 to 0.099 µM

Report measured IC50; entry is OC[C@@H](Nc1ncnc2sc3c(c12)CCCC3)c1ccccc1 0.1 to 0.3 µM

Report measured IC50; entry is CN(C)C/C=C/C(=O)N1CCc2c(sc3ncnc(N[C@H](COCc4ccc(F)cc4)c4ccccc4)c23)C1 0.001 to 0.099 µM

Report measured IC50; entry is C=CC(=O)N1CCc2c(sc3ncnc(N[C@H](COCc4ccccc4)c4ccccc4)c23)C1 0.001 to 0.099 µM

Report measured IC50; entry is CC(=O)OC[C@@H](Nc1ncnc2oc(-c3ccccc3)c(Br)c12)c1ccccc1 0.301 to 0.999 µM

Report measured IC50; entry is CN(C)C/C=C/C(=O)N1CCc2c(sc3ncnc(N[C@H](COCc4ccccn4)c4ccccc4)c23)C1 0.001 to 0.099 µM

Report measured IC50; entry is CCN(C/C=C/C(=O)N1CCc2c(sc3ncnc(N[C@H](C)c4ccccc4)c23)C1)CCO 0.001 to 0.099 µM

Report measured IC50; entry is CC#CC(=O)Nc1cccc(-c2c(-c3ccccc3)oc3ncnc(N[C@H](CO)c4ccccc4)c23)c1 0.001 to 0.099 µM

Report measured IC50; entry is OC[C@@H](Nc1ncnc2oc(-c3ccccc3)c(-c3ccco3)c12)c1ccccc1 0.301 to 0.999 µM

Report measured IC50; entry is CN(C)C/C=C/C(=O)N1CCc2c(sc3ncnc(N[C@H](CO[Si](C)(C)C(C)(C)C)c4ccccc4)c23)C1 0.301 to 0.999 µM

Report measured IC50; entry is C=CC(=O)N1CCc2c(sc3ncnc(N[C@H](CO)Cc4ccccc4)c23)C1 0.301 to 0.999 µM

Report measured IC50; entry is CN(C)C/C=C/C(=O)N1CCc2c(sc3ncnc(Nc4ccc(F)c(Cl)c4)c23)C1 0.001 to 0.099 µM

Report measured IC50; entry is C=CC(=O)Nc1cccc(-c2csc3ncnc(N[C@H](CO)c4ccccc4)c23)c1 0.001 to 0.099 µM

Report measured IC50; entry is COc1ccc(-c2c(-c3ccccc3)oc3ncnc(N[C@H](CO)c4ccccc4)c23)cc1 0.1 to 0.3 µM

Report measured IC50; entry is C[C@@H](Nc1ncnc2sc3c(c12)CCN(C(=O)/C=C/CN(CCO)CCO)C3)c1ccccc1 0.001 to 0.099 µM

Report measured IC50; entry is C=CC(=O)Nc1cccc(-c2c(-c3ccccc3)oc3ncnc(N[C@H](C)c4ccccc4)c23)c1 0.001 to 0.099 µM

Report measured IC50; entry is CC(=O)Nc1ccc(-c2c(-c3ccccc3)oc3ncnc(N[C@H](CO)c4ccccc4)c23)cc1 0.1 to 0.3 µM

Report measured IC50; entry is CNC/C=C/C(=O)N1CCc2c(sc3ncnc(N[C@H](C)c4ccccc4)c23)C1 0.001 to 0.099 µM

Report measured IC50; entry is CCN(CC)C/C=C/C(=O)N1CCc2c(sc3ncnc(N[C@H](C)c4ccccc4)c23)C1 0.001 to 0.099 µM

Report measured IC50; entry is CC[C@@H](Nc1ncnc2oc(-c3ccccc3)cc12)c1ccccc1 0.301 to 0.999 µM

Report measured IC50; entry is Cc1sc2ncnc(N[C@H](CO)c3ccccc3)c2c1C 0.301 to 0.999 µM

---

Would you mind telling me the reported pIC50 of each entry?
pIC50: −log10 of the molar value.

Please respond with reported pIC50 (system EGFR (human), P00533 [WT]) for C=CC(=O)Nc1ccc(-c2c(-c3ccccc3)oc3ncnc(N[C@H](CO)c4ccccc4)c23)cc1 . 7.00 to 7.22

Please respond with reported pIC50 (system EGFR (human), P00533 [WT]) for OC[C@@H](Nc1ncnc2oc(-c3ccccc3)c(-c3ccccc3)c12)c1ccccc1 . 6.05 to 7.00

Please respond with reported pIC50 (system EGFR (human), P00533 [WT]) for C=CC(=O)N1CCc2c(sc3ncnc(N[C@H](CO[Si](C)(C)C(C)(C)C)c4ccccc4)c23)C1 . 6.05 to 7.00

Please respond with reported pIC50 (system EGFR (human), P00533 [WT]) for CCC[C@@H](Nc1ncnc2sc3c(c12)CCN(C(=O)/C=C/CN(C)C)C3)c1ccccc1 . > 7.23

Please respond with reported pIC50 (system EGFR (human), P00533 [WT]) for CN(C)C/C=C/C(=O)N1CCc2c(sc3ncnc(N[C@H](COCc4ccccc4)c4ccccc4)c23)C1 . > 7.23

Data origin, for the record: the Kinase Knowledgebase extract (Sharma et al. 2016)
